# maps each entry to its IC50
# Tested on: Ba/F3 RET-M918T cells
# assay-procedure: Ba/F3 RET-M918T cell inhibition (CellTiter-Glo)
# Type: cell-based
# condition-info: Mus musculus, BaF3, 72 h
Quick note: give the figure in nM, leave out the unit.

Example molecules with recorded IC50:
COc1ccc(CN2C3CC2CN(c2ccc(-c4cc(N5CCC(C)(O)C5)cn5ncc(C#N)c45)cn2)C3)cn1 (centres unmarked) [Compound 70] :: 1.15
COc1ccc(CN2C3CC2CN(c2ccc(-c4cc(N5CCN(C)C(=O)C5)cn5ncc(C#N)c45)cn2)C3)cn1 [Compound 89] :: 11.6
CO[C@]1(C(=O)N[C@@H](C)c2ccc(-n3cc(F)cn3)nc2)CC[C@H](c2nc(C)cc(Nc3cc(C)[nH]n3)n2)CC1 [BLU-667, reference compound] :: 12.9
[2H]C([2H])([2H])N1CCN(c2cc(-c3ccc(N4CC5CC(C4)N5Cc4ccc(OC)nc4)nc3)c3c(C#N)cnn3c2)CC1 [Compound 94] :: 17.1
COc1ccc(CN2C3CC2CN(c2ccc(-c4cc(OCC(C)(C)O)cn5ncc(C#N)c45)cn2)C3)cn1 [Selpercatinib, selpercatinib, reference compound] :: 20.4
COc1ccc(CN2C3CC2CN(c2ccc(-c4cc(N5CCOCC5)cn5ncc(C#N)c45)cn2)C3)cn1 [Compound 65] :: 23.9

Record COc1ccc(CN2C3CC2CN(c2ccc(-c4cc(N5CCN(C)CC5)cn5ncc(C#N)c45)cn2)C3)cn1 [Compound 87] : what is its IC50 with Ba/F3 RET-M918T cells? 13.4

Provide value of IC50 for this record tested with Ba/F3 RET-M918T cells: COc1ccc(CN2C3CC2CN(c2ccc(-c4cc(N5CCNCC5)cn5ncc(C#N)c45)cn2)C3)cn1 [Compound 96] 45.1

====

The reader will find pIC50 measurements below, all made with UniProt P11362.
Sequence (P11362 22-822): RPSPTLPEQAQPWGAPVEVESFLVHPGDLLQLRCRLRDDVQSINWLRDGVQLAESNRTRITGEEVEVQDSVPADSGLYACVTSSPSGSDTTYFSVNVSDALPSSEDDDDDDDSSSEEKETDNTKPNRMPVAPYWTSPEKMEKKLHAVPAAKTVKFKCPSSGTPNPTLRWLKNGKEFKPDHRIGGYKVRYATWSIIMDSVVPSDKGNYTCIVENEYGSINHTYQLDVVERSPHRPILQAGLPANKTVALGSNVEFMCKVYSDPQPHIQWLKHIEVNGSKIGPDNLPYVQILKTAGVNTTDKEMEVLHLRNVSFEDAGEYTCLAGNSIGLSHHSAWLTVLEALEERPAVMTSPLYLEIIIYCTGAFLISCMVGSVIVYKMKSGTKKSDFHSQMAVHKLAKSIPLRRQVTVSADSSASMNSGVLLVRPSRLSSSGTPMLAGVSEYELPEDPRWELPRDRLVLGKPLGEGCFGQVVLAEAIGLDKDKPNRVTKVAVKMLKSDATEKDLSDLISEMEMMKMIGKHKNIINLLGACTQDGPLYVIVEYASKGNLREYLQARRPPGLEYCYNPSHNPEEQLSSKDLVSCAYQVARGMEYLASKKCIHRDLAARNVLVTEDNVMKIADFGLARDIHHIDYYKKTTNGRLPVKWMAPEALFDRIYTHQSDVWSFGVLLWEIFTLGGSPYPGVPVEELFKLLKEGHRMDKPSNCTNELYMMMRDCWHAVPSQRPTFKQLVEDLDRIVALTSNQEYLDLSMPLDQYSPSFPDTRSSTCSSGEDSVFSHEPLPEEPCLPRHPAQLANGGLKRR
// returns pIC50 (minus log10 of molar concentration), number only

COc1ccc(CN2C3CC2CN(c2ccc(-c4cc(OCC(C)(C)O)cn5ncc(C#N)c45)cn2)C3)cn1 [Selpercatinib, selpercatinib, reference compound] :: 6.52

Shift focus to the following entry.
Look up pIC50 with UniProt P11362 for this compound: `[2H]C([2H])([2H])N1CCN(c2cc(-c3ccc(N4CC5CC(C4)N5Cc4ccc(OC)nc4)nc3)c3c(C#N)cnn3c2)CC1` 6.52

====

This section lists IC50 readings for FGFR4 (Homo sapiens (Human)).
Report the value in nM with no unit label.

COc1ccc(CN2C3CC2CN(c2ccc(-c4cc(OCC(C)(C)O)cn5ncc(C#N)c45)cn2)C3)cn1 [Selpercatinib, selpercatinib, reference compound] :: 475

We now examine a further compound.
Data request, read-out IC50, for [2H]C([2H])([2H])N1CCN(c2cc(-c3ccc(N4CC5CC(C4)N5Cc4ccc(OC)nc4)nc3)c3c(C#N)cnn3c2)CC1 [Compound 94] 595

====

Below, each of the compounds is paired with its reported IC50 value.
# tgt: FGFR2 V564I (Homo sapiens (Human), UniProt P21802, V564I)
# Sequence (P21802 22-821 V564I): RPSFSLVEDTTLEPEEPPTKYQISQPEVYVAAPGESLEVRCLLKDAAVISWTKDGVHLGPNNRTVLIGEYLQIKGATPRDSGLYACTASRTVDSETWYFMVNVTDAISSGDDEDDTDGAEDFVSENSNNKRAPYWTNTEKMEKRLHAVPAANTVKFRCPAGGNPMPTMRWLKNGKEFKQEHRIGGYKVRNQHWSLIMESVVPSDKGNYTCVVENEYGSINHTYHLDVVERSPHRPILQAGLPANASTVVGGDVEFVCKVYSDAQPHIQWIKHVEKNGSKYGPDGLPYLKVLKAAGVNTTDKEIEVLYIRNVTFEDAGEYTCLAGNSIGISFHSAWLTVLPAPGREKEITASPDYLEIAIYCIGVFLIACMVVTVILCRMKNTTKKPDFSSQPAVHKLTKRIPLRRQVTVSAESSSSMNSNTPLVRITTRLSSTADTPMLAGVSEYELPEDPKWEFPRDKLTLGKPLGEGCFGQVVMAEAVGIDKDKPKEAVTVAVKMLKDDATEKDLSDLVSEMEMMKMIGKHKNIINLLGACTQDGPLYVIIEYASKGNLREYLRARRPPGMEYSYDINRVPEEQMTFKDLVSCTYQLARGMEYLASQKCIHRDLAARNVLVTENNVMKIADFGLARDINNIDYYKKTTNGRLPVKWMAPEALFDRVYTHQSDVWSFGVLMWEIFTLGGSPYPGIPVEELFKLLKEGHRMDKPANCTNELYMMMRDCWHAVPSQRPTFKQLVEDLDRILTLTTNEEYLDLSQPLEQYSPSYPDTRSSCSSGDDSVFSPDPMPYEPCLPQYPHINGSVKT
# assay-procedure: HTRF kinase activity assay, FGFR2 V564I
# Protocol: Activity Experiment 8: Inhibition of FGFR Family Kinases' Activity by Prepared Compounds The compounds were assayed for activity IC50 against the FGFR family kinases. Related kinases were purchased from Carna and Signalchem. The activity assay method for the related kinases was established by homogeneous time-resolved fluorescence (HTRF), and the inhibitory activity of the compounds was determined. […]
Respond numerically; units are µM and should not be typed.

Returns the measured IC50 for the input compound. Input: COc1ccc(CN2C3CC2CN(c2ccc(-c4cc(OCC(C)(C)O)cn5ncc(C#N)c45)cn2)C3)cn1 [Selpercatinib, selpercatinib, reference compound] 0.0976

Fill in: IC50 of [2H]C([2H])([2H])N1CCN(c2cc(-c3ccc(N4CC5CC(C4)N5Cc4ccc(OC)nc4)nc3)c3c(C#N)cnn3c2)CC1 [Compound 94] is ___ 0.0456

====

# assay-procedure: Metabolic stability in human liver microsomes
quantity: microsomal CLint at 1 µM (µL/min/mg)
# number only, unit µL/min/mg dropped from output

Item under review: COc1ccc(CN2C3CC2CN(c2ccc(-c4cc(N5CCP(C)(=O)CC5)cn5ncc(C#N)c45)cn2)C3)cn1 [Compound 20] . Reported microsomal CLint at 1 µM? 6

====

# assay-procedure: Metabolic stability in human liver microsomes
# condition-info: CLint (μL/min/mg), human liver microsomes, NADPH, Table 3
quantity: microsomal CLint at 1 µM (µL/min/mg)
Note: unit µL/min/mg is implicit; provide only the numeric part.

[2H]C([2H])([2H])N1CCN(c2cc(-c3ccc(N4CC5CC(C4)N5Cc4ccc(OC)nc4)nc3)c3c(C#N)cnn3c2)CC1 :: 41.2
COc1ccc(CN2C3CC2CN(c2ccc(-c4cc(OCC(C)(C)O)cn5ncc(C#N)c45)cn2)C3)cn1 [Selpercatinib, selpercatinib, reference compound] :: 60.4
COc1ccc(CN2C3CC2CN(c2ccc(-c4cc(N5CCC(C)(O)C5)cn5ncc(C#N)c45)cn2)C3)cn1 (centres unmarked) :: 50.6
COc1ccc(CN2C3CC2CN(c2ccc(-c4cc(N5CCOCC5)cn5ncc(C#N)c45)cn2)C3)cn1 :: 44.8

Pending compound:
Suppose we examine the compound `COc1ccc(CN2C3CC2CN(c2ccc(-c4cc(N5CCN(C)CC5)cn5ncc(C#N)c45)cn2)C3)cn1` ; what microsomal CLint at 1 µM value has been reported? 35.8

====

Each record here notes measured IC50.
# tgt: FGFR2 V564F (Homo sapiens (Human), UniProt P21802, V564F)
# Sequence (P21802 22-821 V564F): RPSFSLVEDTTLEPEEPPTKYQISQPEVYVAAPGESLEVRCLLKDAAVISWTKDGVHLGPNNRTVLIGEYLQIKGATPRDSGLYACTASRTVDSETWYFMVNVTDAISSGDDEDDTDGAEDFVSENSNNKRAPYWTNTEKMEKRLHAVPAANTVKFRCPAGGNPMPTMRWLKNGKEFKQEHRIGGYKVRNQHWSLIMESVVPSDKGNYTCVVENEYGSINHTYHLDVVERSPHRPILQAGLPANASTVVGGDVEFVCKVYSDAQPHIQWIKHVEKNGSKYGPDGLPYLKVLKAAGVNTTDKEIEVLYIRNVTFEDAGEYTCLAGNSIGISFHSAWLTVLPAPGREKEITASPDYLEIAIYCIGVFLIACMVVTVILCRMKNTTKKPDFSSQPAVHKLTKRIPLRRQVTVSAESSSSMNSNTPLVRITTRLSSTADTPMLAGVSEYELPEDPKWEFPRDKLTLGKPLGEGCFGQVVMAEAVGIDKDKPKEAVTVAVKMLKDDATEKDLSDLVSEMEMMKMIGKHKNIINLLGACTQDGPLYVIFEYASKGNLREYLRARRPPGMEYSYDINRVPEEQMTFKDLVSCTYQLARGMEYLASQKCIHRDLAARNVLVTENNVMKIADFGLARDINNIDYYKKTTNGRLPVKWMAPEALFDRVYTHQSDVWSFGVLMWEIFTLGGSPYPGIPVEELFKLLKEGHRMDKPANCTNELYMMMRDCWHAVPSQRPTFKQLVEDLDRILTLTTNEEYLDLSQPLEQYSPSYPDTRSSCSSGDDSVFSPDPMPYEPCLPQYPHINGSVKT
# assay-procedure: HTRF kinase activity assay, FGFR2 V564F
Please reply with the bare figure in nM and do not write the unit itself.

COc1ccc(CN2C3CC2CN(c2ccc(-c4cc(OCC(C)(C)O)cn5ncc(C#N)c45)cn2)C3)cn1 [Selpercatinib, selpercatinib, reference compound] :: 12.9

Moving on to the next molecule.
Given the entry `[2H]C([2H])([2H])N1CCN(c2cc(-c3ccc(N4CC5CC(C4)N5Cc4ccc(OC)nc4)nc3)c3c(C#N)cnn3c2)CC1` , report its measured IC50. 3.58

====

Each item that follows carries a reported half-life.
# assay-procedure: Pharmacokinetic assay in rats
# Type: in vivo, rat
# condition-info: rat, plasma, po; SD male rats, p.o. 5 mg/kg
Lab book: enter the figure in h, no units written.

COc1ccc(CN2C3CC2CN(c2ccc(-c4cc(OCC(C)(C)O)cn5ncc(C#N)c45)cn2)C3)cn1 [Selpercatinib, selpercatinib, reference compound] :: 3.11

Which half-life value is on record for [2H]C([2H])([2H])N1CCN(c2cc(-c3ccc(N4CC5CC(C4)N5Cc4ccc(OC)nc4)nc3)c3c(C#N)cnn3c2)CC1 [Compound 94] ? 15.8

====

# Tested on: Ba/F3 KIF5B-RET cells
# assay-procedure: Ba/F3 KIF5B-RET cell inhibition (CellTiter-Glo)
# Assay type: cell-based
# condition-info: Mus musculus, BaF3, 72 h
quantity: pIC50
Note on pIC50: it is the negative log10 of concentration, concentration in mol/L.

The cases that follow already have their pIC50 on record.
COc1ccc(CN2C3CC2CN(c2ccc(-c4cc(C#CC(C)(C)O)cn5ncc(C#N)c45)cn2)C3)cn1 :: 8.04
COc1ccc(CN2C3CC2CN(c2ccc(-c4cc(N5CCOCC5)cn5ncc(C#N)c45)cn2)C3)cn1 :: 8.09

// switching to the query compound
Request the reported pIC50 associated with `COc1ccc(CN2C3CC2CN(c2ccc(-c4cc(NCC(C)(C)O)cn5ncc(C#N)c45)cn2)C3)cn1` 7.87
